# target: Recombinant human CD33 protein (Homo sapiens (Human), UniProt P20138)
# Sequence (P20138 18-259): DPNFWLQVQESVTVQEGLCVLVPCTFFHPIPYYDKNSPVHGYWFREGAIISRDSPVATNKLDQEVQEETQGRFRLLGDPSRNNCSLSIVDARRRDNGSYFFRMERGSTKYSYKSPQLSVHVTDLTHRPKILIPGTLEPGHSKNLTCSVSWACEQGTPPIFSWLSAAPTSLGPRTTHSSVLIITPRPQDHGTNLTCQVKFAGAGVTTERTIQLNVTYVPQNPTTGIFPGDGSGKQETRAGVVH
# method-description: CD33 competitive binding assay for HTS drug screen (fluorescent multivalent sialic acid probe)
# Description: This is a competitive binding assay that uses recombinant CD33 immobilized to a plate and a fluorescently-labeled multivalent sialic acid analog as a probe. Binding of drug to the site on CD33 to which sialic acid binds is detected by reduced binding of the fluorescent probe. […] Bound complex was then detected using a standard plate reader to quantify FITC fluorescence.
pEC50: −log10 of the molar value.
pEC50 below 6 gives 0; pEC50 at or above it gives 1.

compound	category
CC(=O)N[C@H]1[C@H]([C@H](O)[C@H](O)CNC(=O)c2cc(C)c(O)c(C)c2)O[C@@](CCN2CCOC[C@@]23CCN(C(=O)COC(C)(C)C)C3)(C(=O)O)C[C@@H]1O	0

Incoming: Hi, just wondering whether COc1ccc(C(=O)NC[C@@H](O)[C@@H](O)[C@@H]2O[C@@](CCN3CCOC[C@@]34CCN(C(=O)OC(C)(C)C)C4)(C(=O)O)C[C@H](O)[C@H]2NC(C)=O)cc1OC shows pEC50 of 6 or higher.
Outgoing: 1

Incoming: Kindly determine if pEC50 recorded for CC(=O)N[C@H]1[C@H]([C@H](O)[C@H](O)CNC(=O)c2cc(C)c(O)c(C)c2)O[C@@](CCN2CCN(C)C[C@@]23CCN(C(=O)OC(C)(C)C)C3)(C(=O)O)C[C@@H]1O is above or exactly 6.
Outgoing: 1

Incoming: Could you tell me if the measured pEC50 of CC(=O)N[C@H]1[C@H]([C@H](O)[C@H](O)CNC(=O)c2cc(C)c(O)c(C)c2)O[C@@](CC2OC(C)(C)O[C@H]2c2cccc3c2CN(C(=O)OC(C)(C)C)C3)(C(=O)O)C[C@@H]1O (some centres unmarked) reaches 6 or more?
Outgoing: 0

Incoming: Given CC(=O)N[C@H]1[C@H]([C@H](O)[C@H](O)CNC(=O)c2cc(C)c(O)c(C)c2)O[C@@](C/C=C/c2cccc(CNC(=O)C3CCC(Nc4ncccn4)C3)c2)(C(=O)O)C[C@@H]1O (some centres unmarked) , state whether its pEC50 is at least 6.
Outgoing: 0

###

# target: Recombinant Human Siglec-3/CD33 protein (His-CD33) (Homo sapiens (Human), UniProt P20138)
# Sequence (P20138 18-259): as above
# method-description: Differential scanning fluorimetry (DSF) thermal shift assay
# Assay type: binding
# measurement-setup: difference in thermal melt of CD33 protein (0.5 μM) with 50 μM compound
reported-property: DSF (dTmD) (°C)
Kindly answer with a numeric value in °C, unit omitted.

compound	unit-spec	DSF (dTmD)
CC(=O)N[C@H]1[C@H]([C@H](O)[C@H](O)CNC(=O)c2cc(C)c(O)c(C)c2)O[C@@](C/C=C/c2cccc(CNC(=O)c3ccc4cn[nH]c4c3)c2)(C(=O)O)C[C@@H]1O [A-235]	°C	3.3
Cc1cc(C(=O)NC[C@@H](O)[C@@H](O)[C@@H]2O[C@@](OC3CCCCC3NC(=O)Cn3cc(CNC(=O)c4ccccn4)nn3)(C(=O)O)C[C@H](O)[C@H]2NC(=O)Cn2cc(C3CCCCC3)nn2)cc(C)c1O (some centres unmarked) [A-332]	°C	5.4
CC(=O)N[C@H]1[C@H]([C@H](O)[C@H](O)CNC(=O)c2cc(Cl)c(O)c(Cl)c2)O[C@@](CC2OC(C)(C)O[C@@H]2c2cccc(C(=O)NCc3ccccc3)c2)(C(=O)O)C[C@@H]1O (some centres unmarked) [A-322]	°C	3.0
CC(=O)N[C@H]1[C@H]([C@H](O)[C@H](O)CNC(=O)c2cc(C)c(O)c(C)c2)O[C@@](C/C=C/c2cccc(CNC(=O)C3CCC(Nc4cnccn4)CC3)c2)(C(=O)O)C[C@@H]1O (some centres unmarked) [A-247]	°C	8.5

Now let's try a different one.
Incoming: Request - read-out DSF (dTmD) | tested on Recombinant Human Siglec-3/CD33 protein (His-CD33) (Homo sapiens (Human), UniProt P20138) | compound Cc1cc(C(=O)NC[C@@H](O)[C@@H](O)[C@@H]2O[C@@](CC3OC(C)(C)O[C@H]3c3cccc(CNC(=O)OC(C)(C)C)c3)(C(=O)O)C[C@H](O)[C@H]2NC(=O)Cn2cc(C3CCCCC3)nn2)cc(C)c1O (some centres unmarked) [A-301]
Outgoing: 3.5

###

The reader will find reported pEC50 values listed item by item below.
# target: Recombinant human CD33 protein (Homo sapiens (Human))
# method-description: CD33 competitive binding assay for HTS drug screen (fluorescent multivalent sialic acid probe)
pEC50: −log10 of the molar value.

compound	recorded-value
Cc1cc(C(=O)NC[C@H](O)C[C@H]2CC[C@@H](C)[C@](CCN3CCOC[C@@]34CCN(C(=O)OC(C)(C)C)C4)(C(=O)O)O2)cc2cc[nH]c12 [A-219]	< 4.70
Cc1cc(C(=O)NC[C@@H](O)[C@@H](O)[C@@H]2O[C@@](C/C=C/c3cccc(CNC(=O)C4CCC(NS(C)(=O)=O)CC4)c3)(C(=O)O)C[C@H](O)[C@H]2NC(=O)Cn2cc(C3CCCCC3)nn2)cc(C)c1O (stereo partly drawn) [A-281]	5.82

// moving on: another record for pEC50
Incoming: Fill in the blank: the reported pEC50 of CC(=O)N[C@H]1[C@H]([C@H](O)[C@H](O)CNC(=O)c2cc(C)c(O)c(C)c2)O[C@@](CCN2CCOC[C@@]23CCN(C(=O)OC(C)(C)C)C3)(C(N)=O)C[C@@H]1O [A-364] is ____.
Outgoing: < 4.00

###

# reported EC50; entries follow
# target: Recombinant human CD33 protein (Homo sapiens (Human), UniProt P20138)
# method-description: CD33 competitive binding assay for HTS drug screen (fluorescent multivalent sialic acid probe)
Answer shape: numeric part, then the unit.

molecule	target	EC50
CC(=O)N[C@H]1[C@H]([C@H](O)[C@H](O)CNC(=O)c2ccc3ncsc3c2)O[C@@](CCN2CCOC[C@@]23CCN(C(=O)OC(C)(C)C)C3)(C(=O)O)C[C@@H]1O	Recombinant human CD33 protein (Homo sapiens (Human), UniProt P20138)	0.03 µM

Incoming: Name the reported EC50 value associated with the molecule CC(=O)N[C@H]1[C@H]([C@H](O)[C@H](O)CNC(=O)c2cc(C)c(O)c(C)c2)O[C@@](CCN2CCOC[C@@]23CCN(C(=O)NC24CC5CC(CC(C5)C2)C4)C3)(C(=O)O)C[C@@H]1O
Outgoing: 0.041 µM

Incoming: # query: EC50 of entry C#C[C@H](C)C(=O)C(=O)Nc1cccc([C@@H]2OC(C)(C)OC2C[C@]2(C(=O)O)C[C@H](O)[C@@H](NC(C)=O)[C@H]([C@H](O)[C@H](O)CNC(=O)c3cc(C)c(O)c(C)c3)O2)c1 (stereo partly shown)
Outgoing: 5.62 µM

Incoming: For COC[C@@]1(N(C)CC[C@]2(C(=O)O)C[C@H](O)[C@@H](NC(C)=O)[C@H]([C@H](O)[C@H](O)CNC(=O)c3cc(C)c(O)c(C)c3)O2)CCN(C(=O)OC(C)(C)C)C1 , what is its reported EC50?
Outgoing: 0.07 µM

###

# target: Recombinant Human Siglec-3/CD33 protein (His-CD33) (Homo sapiens (Human), UniProt P20138)
# method-description: Differential scanning fluorimetry (DSF) thermal shift assay
# Format: binding
# measurement-setup: thermal melt shift of 0.5 μM CD33 protein with 50 μM compound
Hi, to clarify the labels: satisfied covers DSF (dTmD) from 10 upward, not satisfied covers anything below 10.

See these solved cases before continuing.
compound	category
CC(=O)N[C@H]1[C@H]([C@H](O)[C@H](O)CNC(=O)c2cc(C)c(C(N)=O)c(C)c2)O[C@@](CCN2CCOC[C@@]23CCN(C(=O)OC(C)(C)C)C3)(C(=O)O)C[C@@H]1O [A-141]	not satisfied
CC(=O)N[C@H]1[C@H]([C@H](O)[C@H](O)CNC(=O)c2cc(C)c(O)c(C)c2)O[C@@](C/C=C/C2CCN(C(=O)OC(C)(C)C)C2)(C(=O)O)C[C@@H]1O (stereo partly shown) [A-194]	satisfied
CC(=O)N[C@H]1[C@H]([C@H](O)[C@H](O)CNC(=O)c2cc(C)c(O)c(C)c2)O[C@@](CCN2CCOC[C@@]23CCN(C(=S)NC2CC2)C3)(C(=O)O)C[C@@H]1O [A-058]	not satisfied
CC(=O)N[C@H]1[C@H]([C@H](O)[C@H](O)CNC(=O)c2cc(C)c(N)c(C)c2)O[C@@](CCN2CCOC[C@@]23CCN(C(=O)OC(C)(C)C)C3)(C(=O)O)C[C@@H]1O [A-119]	satisfied
CC(=O)N[C@H]1[C@H]([C@H](O)[C@H](O)CNC(=O)c2cc(C)c(O)c(C)c2)O[C@@](CCN2CCOC[C@@]23CCN(C(=O)NC(C)(C)C)C3)(C(=O)O)C[C@@H]1O [A-042]	satisfied
CC(=O)N[C@H]1[C@H]([C@H](O)[C@H](O)CNC(=O)c2cc(C)c3[nH]ccc3c2)O[C@@](CCN2CCOC[C@@]23CCN(C(=O)OC(C)(C)C)C3)(C(=O)O)C[C@@H]1O [A-109]	satisfied

Okay, now this compound:
Incoming: Reported DSF (dTmD) reaches at least 10 for CC(=O)N[C@H]1[C@H]([C@H](O)[C@H](O)CNC(=O)c2ccc(C)c(F)c2)O[C@@](CCN2CCOC[C@@]23CCN(C(=O)OC(C)(C)C)C3)(C(=O)O)C[C@@H]1O [A-149] ?
Outgoing: satisfied
